Method Description: Selectivity index, ratio of IC50 for Taq polymerase to IC50 for telomerase
Observed Property: Selectivity index

Consider the worked cases shown below.
>>> print(df.to_string())
                                   compound  observed_property  experimental_value
0  C[N+](C)(C)CCN1C(=O)c2ccc3c4c(ccc(c24)C1=O)C(=O)N(CC[N+](C)(C)C)C3=O  Selectivity index                   2
1  O=C1c2ccc3c4ccc5c6c(ccc(c7ccc(c2c37)C(=O)N1CCN1CCCCC1)c64)C(=O)N(CCN1CCCCC1)C5=O  Selectivity index                  25

(I) C[N+](C)(C)CCN1C(=O)c2ccc3c4ccc5c6c(ccc(c7ccc(c2c37)C1=O)c64)C(=O)N(CC[N+](C)(C)C)C5=O
(II) c1cc2c3ccc4c5c(ccc(c6ccc7c(c1CN(CCN1CCCCC1)C7)c26)c53)CN(CCN1CCCCC1)C4
Query: Choose between I and II : whose measured Selectivity index value is numerically larger? Response format: the label of the selected entry.
Result: II
(II: 25, I: 4.2)

* * *

Listing of entries alongside the reported pIC50.
Assay System: DNA polymerase I, thermostable (Thermus aquaticus, UniProt P19821)
Sequence (P19821 whole entry): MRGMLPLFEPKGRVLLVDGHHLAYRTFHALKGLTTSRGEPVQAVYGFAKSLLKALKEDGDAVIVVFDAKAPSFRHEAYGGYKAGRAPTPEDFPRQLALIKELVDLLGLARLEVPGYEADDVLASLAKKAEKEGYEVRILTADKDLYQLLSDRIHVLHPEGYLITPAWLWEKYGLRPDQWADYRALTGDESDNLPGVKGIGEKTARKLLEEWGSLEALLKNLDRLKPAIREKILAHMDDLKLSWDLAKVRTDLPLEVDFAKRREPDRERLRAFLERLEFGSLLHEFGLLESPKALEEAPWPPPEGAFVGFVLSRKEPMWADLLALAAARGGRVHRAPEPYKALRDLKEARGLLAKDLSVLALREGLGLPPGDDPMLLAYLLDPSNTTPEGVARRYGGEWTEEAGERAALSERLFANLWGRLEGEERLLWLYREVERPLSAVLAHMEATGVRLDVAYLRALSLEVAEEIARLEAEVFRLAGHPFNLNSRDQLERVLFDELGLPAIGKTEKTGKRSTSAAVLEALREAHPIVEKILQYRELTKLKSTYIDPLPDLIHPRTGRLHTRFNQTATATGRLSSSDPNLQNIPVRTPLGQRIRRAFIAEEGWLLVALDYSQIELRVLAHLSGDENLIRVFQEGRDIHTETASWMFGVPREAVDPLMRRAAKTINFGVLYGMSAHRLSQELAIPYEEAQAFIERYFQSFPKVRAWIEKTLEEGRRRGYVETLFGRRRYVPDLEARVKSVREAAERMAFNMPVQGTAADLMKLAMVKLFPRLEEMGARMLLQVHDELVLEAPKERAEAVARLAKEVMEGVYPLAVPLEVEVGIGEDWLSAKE
Please treat pIC50 as minus the base-10 logarithm of the molar concentration.

Check out these entries, answers already filled in.
>>> df
                                   compound  observed_property  experimental_value
0  CN(C)CCN1C(=O)c2ccc3c4ccc5c6c(ccc(c7ccc(c2c37)C1=O)c64)C(=O)N(CCN(C)C)C5=O              pIC50                6.05
1  C[N+](C)(C)CCN1C(=O)c2ccc3c4ccc5c6c(ccc(c7ccc(c2c37)C1=O)c64)C(=O)N(CC[N+](C)(C)C)C5=O              pIC50                6.82

Now consider the entry below.
Query: Requested read-out pIC50, target or system DNA polymerase I, thermostable (Thermus aquaticus, UniProt P19821), entry O=C1c2ccc3c4ccc5c6c(ccc(c7ccc(c2c37)C(=O)N1CCN1CCCCC1)c64)C(=O)N(CCN1CCCCC1)C5=O
Result: 5.30

* * *

This section lists IC50 readings for DNA polymerase I, thermostable (Thermus aquaticus).
Observed Property: IC50 (µM)

>>> print(df.to_string())
                                   compound  observed_property  unit_info  experimental_value
0  C[N+](C)(C)CCCN1C(=O)c2ccc3c4c(ccc(c24)C1=O)C(=O)N(CCC[N+](C)(C)C)C3=O               IC50         µM                   5

(A) CN(C)CCN1Cc2ccc3c4c(ccc(c24)C1)CN(CCN(C)C)C3
(B) C[N+](C)(C)CCN1C(=O)c2ccc3c4c(ccc(c24)C1=O)C(=O)N(CC[N+](C)(C)C)C3=O
Query: Could you check which of A and B has a smaller value for IC50? Let me know the label of the one you choose.
Result: B
(B: 5 µM, A: 25 µM)

* * *

Assay System: Telomerase reverse transcriptase (Homo sapiens, UniProt O14746)
Sequence (O14746 whole entry): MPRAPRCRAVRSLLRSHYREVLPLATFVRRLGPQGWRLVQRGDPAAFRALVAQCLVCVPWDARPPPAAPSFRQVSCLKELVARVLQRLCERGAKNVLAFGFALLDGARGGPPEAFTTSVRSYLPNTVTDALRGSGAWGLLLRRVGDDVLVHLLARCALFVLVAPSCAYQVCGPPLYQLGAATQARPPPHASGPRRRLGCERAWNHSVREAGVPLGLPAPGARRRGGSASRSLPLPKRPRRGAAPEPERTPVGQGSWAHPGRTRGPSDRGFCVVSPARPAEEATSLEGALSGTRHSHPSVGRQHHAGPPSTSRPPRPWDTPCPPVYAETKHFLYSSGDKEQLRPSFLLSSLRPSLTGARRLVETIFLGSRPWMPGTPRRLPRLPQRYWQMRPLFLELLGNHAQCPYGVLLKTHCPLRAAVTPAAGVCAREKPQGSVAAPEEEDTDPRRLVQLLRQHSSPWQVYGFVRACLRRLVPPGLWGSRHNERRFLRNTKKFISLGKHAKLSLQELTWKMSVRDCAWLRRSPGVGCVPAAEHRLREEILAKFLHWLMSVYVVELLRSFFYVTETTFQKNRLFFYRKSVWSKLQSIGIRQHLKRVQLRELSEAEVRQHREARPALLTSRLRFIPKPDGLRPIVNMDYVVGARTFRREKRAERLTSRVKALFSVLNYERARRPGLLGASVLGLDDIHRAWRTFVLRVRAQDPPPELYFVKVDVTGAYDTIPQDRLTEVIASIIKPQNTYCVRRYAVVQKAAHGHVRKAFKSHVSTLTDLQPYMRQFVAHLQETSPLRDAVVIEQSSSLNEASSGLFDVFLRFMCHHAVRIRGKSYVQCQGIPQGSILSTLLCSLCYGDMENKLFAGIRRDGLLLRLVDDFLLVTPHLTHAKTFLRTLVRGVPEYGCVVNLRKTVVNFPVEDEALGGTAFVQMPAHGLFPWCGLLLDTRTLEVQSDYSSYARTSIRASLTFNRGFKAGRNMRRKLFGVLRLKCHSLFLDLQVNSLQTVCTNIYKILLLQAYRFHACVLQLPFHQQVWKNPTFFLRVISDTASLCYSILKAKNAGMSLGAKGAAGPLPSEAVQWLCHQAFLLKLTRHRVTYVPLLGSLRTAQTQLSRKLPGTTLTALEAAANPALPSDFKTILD
Method Description: Inhibition of telomerase in JR8 cell extract by TRAP assay
Observed Property: IC50 (nM)

Some molecules with recorded IC50:
>>> df
                                   compound  observed_property  experimental_value
0  CN(C)CCCN1C(=O)c2ccc3c4c(ccc(c24)C1=O)C(=O)N(CCCN(C)C)C3=O               IC50                3500
1  C[N+](C)(C)CCCN1C(=O)c2ccc3c4c(ccc(c24)C1=O)C(=O)N(CCC[N+](C)(C)C)C3=O               IC50                2500
2  O=C1c2ccc3c4ccc5c6c(ccc(c7ccc(c2c37)C(=O)N1CCN1CCCCC1)c64)C(=O)N(CCN1CCCCC1)C5=O               IC50                 200
3  CN(C)CCN1C(=O)c2ccc3c4ccc5c6c(ccc(c7ccc(c2c37)C1=O)c64)C(=O)N(CCN(C)C)C5=O               IC50                 160

(1) c1cc2c3ccc4c5c(ccc(c6ccc7c(c1CN(CCN1CCCCC1)C7)c26)c53)CN(CCN1CCCCC1)C4
(2) C[N+](C)(C)CCN1C(=O)c2ccc3c4c(ccc(c24)C1=O)C(=O)N(CC[N+](C)(C)C)C3=O
(3) O=C1c2ccc3c4ccc5c6c(ccc(c7ccc(c2c37)C(=O)N1CCNCCO)c64)C(=O)N(CCNCCO)C5=O
(4) C[N+](C)(C)CCN1C(=O)c2ccc3c4ccc5c6c(ccc(c7ccc(c2c37)C1=O)c64)C(=O)N(CC[N+](C)(C)C)C5=O
Query: Rank descending by IC50. Submit the labels in the order that the ranking request calls for.
Result: 2, 1, 3, 4

* * *

Method Description: Selectivity index, ratio of IC50 for Taq polymerase to IC50 for telomerase
Observed Property: Selectivity index

>>> df
                                   compound  observed_property  experimental_value
0  CN(C)CCCN1C(=O)c2ccc3c4c(ccc(c24)C1=O)C(=O)N(CCCN(C)C)C3=O  Selectivity index                 1.8
1  C[N+](C)(C)CCCN1C(=O)c2ccc3c4c(ccc(c24)C1=O)C(=O)N(CCC[N+](C)(C)C)C3=O  Selectivity index                   2
2  O=C1c2ccc3c4ccc5c6c(ccc(c7ccc(c2c37)C(=O)N1CCNCCO)c64)C(=O)N(CCNCCO)C5=O  Selectivity index                   2
3  CN(C)CCN1C(=O)c2ccc3c4ccc5c6c(ccc(c7ccc(c2c37)C1=O)c64)C(=O)N(CCN(C)C)C5=O  Selectivity index                 5.6
